Assembled from different publications: IC50 for the protein given by its sequence.
Target sequence: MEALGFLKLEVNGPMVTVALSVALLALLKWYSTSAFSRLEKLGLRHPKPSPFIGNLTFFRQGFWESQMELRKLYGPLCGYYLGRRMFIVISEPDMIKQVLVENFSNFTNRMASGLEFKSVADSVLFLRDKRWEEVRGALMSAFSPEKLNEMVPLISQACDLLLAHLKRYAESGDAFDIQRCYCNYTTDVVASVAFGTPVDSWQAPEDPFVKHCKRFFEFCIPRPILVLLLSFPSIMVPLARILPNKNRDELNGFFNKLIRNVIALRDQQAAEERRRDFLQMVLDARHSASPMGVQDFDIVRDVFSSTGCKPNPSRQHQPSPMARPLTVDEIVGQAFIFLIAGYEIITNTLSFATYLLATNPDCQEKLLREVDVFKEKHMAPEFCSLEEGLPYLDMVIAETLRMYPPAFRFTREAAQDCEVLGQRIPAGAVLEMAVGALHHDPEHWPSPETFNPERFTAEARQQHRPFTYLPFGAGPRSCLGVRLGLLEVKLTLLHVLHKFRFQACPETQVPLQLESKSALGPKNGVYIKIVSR

Example entries and their recorded answers appear below.
> print(dat)
                                   molecule  measured.value
1             O=C(O)c1cc2ccc(Cn3ccnc3)cc2o1           20 nM
2          Cc1c(Cn2ccnc2)sc2cc(C(=O)O)ccc12           18 nM
3  O=C(O)CCC/C=C(\c1ccc(CCNS(=O)(=O)c2ccc(F)cc2)cc1)c1cccnc1            4 nM

Each molecule below has a recorded value; state its IC50.
1. O=C(O)CCC(CCCCNS(=O)(=O)c1ccc(Cl)cc1)CCOc1cccnc1 (stereo unspecified)
2. NC(=O)c1ccccc1OCCn1ccnc1
3. CN(C)C(=O)c1ccc(OCCn2ccnc2)cc1

Result:
["2.6 nM", "22000 nM", "1100 nM"]

* * *

Below are pIC50 measurements against Thromboxane-A synthase (Homo sapiens, UniProt P24557) drawn from the literature.
Numbers only, as −log10 of the molar value.

> print(dat)
                                   compound  assay.endpoint  measured.value
1          CC(=O)NC(=O)c1ccc(OCCn2ccnc2)cc1           pIC50            6.20
2              O=C(O)COc1ccc(OCCn2ccnc2)cc1           pIC50            7.02
3          Cc1c(C(=O)O)sc2ccc(Cn3ccnc3)cc12           pIC50            7.54
4  CC(C)(C)OC(=O)CCC/C=C(\c1ccc(CCNS(=O)(=O)c2ccc(Cl)cc2)cc1)c1cccnc1           pIC50            6.82
5  Cc1ccc(S(=O)(=O)NCCc2ccc(/C(=C\CCCC(=O)O)c3cccnc3)cc2)cc1           pIC50            8.30

Dear colleague, could you please provide pIC50 for the compounds listed below?
1. O=C(O)CCCC(CNS(=O)(=O)c1ccc(Cl)cc1)c1cccnc1 (stereo unspecified)
2. NC(=O)Cc1ccc(OCCn2ccnc2)cc1
3. Cn1c(CCNS(=O)(=O)c2ccc(F)cc2)ccc1/C(=C\CCCC(=O)O)c1cccnc1
4. O=C(O)CCc1cc(CCNS(=O)(=O)C2CCCCC2)cc(Cc2cccnc2)c1

Result:
1. 5.70
2. 5.74
3. 8.40
4. 7.37

Task: Look up pIC50 with Thromboxane-A synthase (Homo sapiens, UniProt P24557) for this compound: `Clc1ccc2[nH]cc(Cn3ccnc3)c2c1`
Result: 5.52
